test system: MDA-N; test: NCI tumour cell line growth inhibition, 48 h
The source made the active and inactive calls. Rule as the data show it: active = GI50 up to about 1.1 µM and inactive = higher.
Select the matching outcome among active, inactive

Check out these entries, answers already filled in.
compound	cat
O=Cc1ccc(-c2cccs2)s1	inactive
COc1cc(C2c3cc4c(cc3OC(NNC(N)=O)C2C)OCO4)cc(OC)c1OC (stereo not given)	active

Please state the recorded outcome for this compound: Oc1cc(O)c2c(c1)O[C@H](c1ccc(O)c(O)c1)[C@@H](O)C2 [CIANIDANOL]
inactive

Also need CN(C)C(c1ccccc1)C1COC2Cc3ccccc3C1O2 (stereo not given) , thanks.
inactive

What do we get for O=C1[C@@H]2C[C@@H](O)CN2C(=O)c2ccccc2N1CCCO ?
inactive

Please answer likewise for C[n+]1c(-c2ccc(/C=N/Nc3ccnc(N/N=C/c4ccc(-c5cn6ccccc6[n+]5C)cc4)n3)cc2)cn2ccccc21
inactive

Same thing, different compound: COc1ccc(N(C)C(=O)N(C)c2ccc([N+](=O)[O-])cc2)cc1
inactive

What about NC(=O)CN1CCN(c2nc(N3CCCC3)c3nc(Cl)c(NCc4ccccc4)nc3n2)CC1 ?
inactive

What about Cc1cc(-c2nc3ccccc3s2)ccc1NC(=O)[C@@H](N)CCCCN ?
inactive

Repeat with CN(C)Cc1cc(/N=N/c2ccc(Cl)cc2)ccc1OC(=O)c1ccccc1
inactive

Can you check CCCCCCc1cc2cc(C(=O)Nc3nc(C45CC6CC(CC(C6)C4)C5)cs3)c(=O)oc2cc1O next?
inactive

Here is the next compound: CC1(c2nc3ccccc3[nH]2)CCC(C#N)C(C)(C)O1 (stereo not given)
inactive

Entry to check: CCCCC[C@H]1CC=CC(=O)O1
inactive

Please do the same for Cn1c(=O)c2c(nc3n2CC(=O)N3CCCCl)n(C)c1=O as well.
inactive

Next compound: CCOC(=O)C(NC(=O)c1ccccc1)(Nc1ccc(Cl)cc1C(F)(F)F)C(F)(F)F (stereo not given)
inactive

---

tested on: CAKI-1; test: NCI tumour cell line growth inhibition, 48 h
Active and inactive are the calls of the source. Rule as the data show it: active = GI50 up to about 1.1 µM and inactive = higher.
quantity.name: GI50

# count of solved cases: 8
                                   compound  target_desc             measured
0                      CNc1nc(C(N)=O)c(N)s1       CAKI-1  > 100 µM (inactive)
1  N#Cc1nc(C2CCC(=O)O2)oc1N (configuration not stated)       CAKI-1  > 100 µM (inactive)
2  COC[n+]1cc2cc(OC)c(OC)cc2c2ccc3cc(OC)c(OC)cc3c21       CAKI-1  > 100 µM (inactive)
3                    CCCCC[C@H]1CC=CC(=O)O1       CAKI-1   2.55 µM (inactive)
4                         O=[PH](O)c1ccccn1       CAKI-1  > 100 µM (inactive)
5  NC(CO)Cc1c[nH]cn1 (configuration not stated)       CAKI-1  > 100 µM (inactive)
6    O=c1[nH]nc(-c2ccccc2)n1/N=C/c1ccccc1Cl       CAKI-1   36.6 µM (inactive)
7  COC(=O)C1(Cc2ccc3c(c2)CCC3)Cc2cc3c(cc2C1=O)CCC3 (configuration not stated)       CAKI-1   6.73 µM (inactive)

Which measured GI50 belongs to CCOc1ccc(NC(=O)C(=O)CC(=O)c2c(C)[n+]([O-])c3ccccc3[n+]2[O-])cc1 , tested on CAKI-1?
> 100 µM (inactive)
